- procedure-text: physchem
- condition-description: de-ionized water, 24 °C
readout-label: solubility (µg/mL)
Kindly provide the numeric value in µg/mL only, without the unit symbol.

I'd like to know its solubility. The compound in question is O=C(O)c1cc(N=Nc2ccc(S(=O)(=O)Nc3ccccn3)cc2)ccc1O 60

---

- procedure-text: in vitro
- condition-description: human, Caco-2
readout-label: Papp B→A at 180 min, 200 μg/mL
# answer = value followed by unit

I'd like to know its Papp B→A at 180 min, 200 μg/mL. The compound in question is O=C(O)c1cc(N=Nc2ccc(S(=O)(=O)Nc3ccccn3)cc2)ccc1O [sulfasalazine] 4.76 ×10⁻⁶ cm/s

---

- procedure-text: Solubility of sulfasalazine, Form A meglumine salt and pharmaceutical compositions (HPLC)
- Format: physicochemical
- condition-description: pH 5.9, thermodynamic from solid; water, room temperature; read-out: Solubility (mg/mL) Water
readout-label: solubility at 24 h (mg/mL)
Kindly provide the numeric value in mg/mL only, without the unit symbol.

I'd like to know its solubility at 24 h. The compound in question is O=C(O)c1cc(N=Nc2ccc(S(=O)(=O)Nc3ccccn3)cc2)ccc1O [sulfasalazine] 0.06

---

- procedure-text: in vitro
- condition-description: human, Caco-2
readout-label: Papp B→A at 180 min, 2000 μg/mL (×10⁻⁶ cm/s)
Kindly provide the numeric value in ×10⁻⁶ cm/s only, without the unit symbol.

I'd like to know its Papp B→A at 180 min, 2000 μg/mL. The compound in question is O=C(O)c1cc(N=Nc2ccc(S(=O)(=O)Nc3ccccn3)cc2)ccc1O 2.79

---

- procedure-text: in vitro
- condition-description: human, Caco-2
readout-label: Papp A→B at 180 min, 200 μg/mL (×10⁻⁶ cm/s)
Kindly provide the numeric value in ×10⁻⁶ cm/s only, without the unit symbol.

I'd like to know its Papp A→B at 180 min, 200 μg/mL. The compound in question is O=C(O)c1cc(N=Nc2ccc(S(=O)(=O)Nc3ccccn3)cc2)ccc1O [sulfasalazine] 1.16

Data provenance is patent US12274706B2.
